Assay: Partition of cannabinoids between degummed cannabis oil miscella and water/ethanol/base extraction solvent in a fiber conduit contactor
Type: physicochemical
Parameters: scale not given here
Details: Base K2CO3; H2O/EtOH/Base (wt %) 68.3/29.1/2.5
result.type: Partition coefficient

- molecule: "C=C(C)[C@@H]1CCC(C)=C[C@H]1c1c(O)cc(CCCCC)c(C(=O)O)c1O"
  reading: 0.04
- molecule: "C=C(C)[C@@H]1CCC(C)=C[C@H]1c1c(O)cc(CCCCC)cc1O [CBD, cannabidiol, reference compound]"
  reading: 0.55
- molecule: "CCCCCc1cc2c(c(O)c1C(=O)O)C=CC(C)(CCC=C(C)C)O2 (stereo not shown)"
  reading: 0.22
- molecule: "CCCCCc1cc(O)c2c(c1)OC(C)(CCC=C(C)C)C=C2 (stereo not shown)"
  reading: 0.6
- molecule: "CCCCCc1cc(O)c2c(c1)OC(C)(C)[C@@H]1CCC(C)=C[C@@H]21 [THC, tetrahydrocannabinol, reference compound]"
  reading: 0.59
- molecule: "CCCCCc1cc(O)c(C/C=C(\\C)CCC=C(C)C)c(O)c1C(=O)O"
  reading: 0.15
- molecule: "CCCCCc1cc2c(c(O)c1C(=O)O)[C@@H]1C=C(C)CC[C@H]1C(C)(C)O2 [THCA, tetrahydrocannabinolic acid]"
  reading: 0.28
